Provide the reported % Positive of each item.
Biological target: T1, human Siglec-5 expressed on human primary cells (human, UniProt O15389 17-551)
T1 construct: Endogenous receptor on human primary monocytes, dendritic cells, macrophages and neutrophils; also called CD170
T1 sequence: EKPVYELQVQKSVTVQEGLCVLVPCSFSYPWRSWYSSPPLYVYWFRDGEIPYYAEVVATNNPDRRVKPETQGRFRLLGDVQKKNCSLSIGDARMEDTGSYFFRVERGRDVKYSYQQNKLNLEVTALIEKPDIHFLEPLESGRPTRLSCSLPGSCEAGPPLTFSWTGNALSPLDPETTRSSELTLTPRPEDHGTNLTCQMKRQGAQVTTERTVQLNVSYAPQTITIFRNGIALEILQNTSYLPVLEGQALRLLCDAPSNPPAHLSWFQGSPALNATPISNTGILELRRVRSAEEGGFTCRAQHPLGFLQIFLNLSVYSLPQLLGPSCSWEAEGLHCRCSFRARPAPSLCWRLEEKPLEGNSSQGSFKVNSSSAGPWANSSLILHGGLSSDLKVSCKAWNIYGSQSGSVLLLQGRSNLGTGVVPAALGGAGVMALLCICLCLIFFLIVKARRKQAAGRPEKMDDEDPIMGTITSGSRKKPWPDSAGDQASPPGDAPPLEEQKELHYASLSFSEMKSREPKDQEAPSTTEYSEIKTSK
Experiment: flow cytometry, human primary macrophages, 10 ug/ml mAb
Give the value, in units of %, as a plain number.

stdin: Which % Positive reading was recorded for the binder anti-Siglec-5 monoclonal antibody 8A1 (antibody, IgG1, V domains shown) VH: EIQLQQSGPELVKPGASVKVSCKASDYAFTSYNIYWVKQSHGKSLEWIGYIDPYNGGTSYNQTFKGKATLTVDKSSSTAYMHLNSLTSEDSAVYYCAMKVGYEAMDYWGQGTSVTVSS VL: DIVMTQSQKFMSTSVGDRVSVTCKASQNVGTYVAWYQQKPGQSPKALIYSASYRYSGVPDRFTGSGSGTDFTLNISNVQSEDLAEYFCQQFNSYPYTFGGGTKLEIK ?
stdout: 83

stdin: // repeat for anti-Siglec-5 monoclonal antibody 2G5 (antibody, IgG1, V domains shown) VH: EIQLQQSGPELVKPGASVKVSCKASGYSFTDYNMYWVKQSHGKSLEWIGYIDPYNGNTTYNQRFKGKATLTVDKSSSTAFMHLNSLTSEDAAVYYCATFYGFDGFAYWGQGSLVAVSA VL: QAVVTQESALTTSPGETVTLTCRSSTGAVTTSNYANWVQEKPDHLFTGLIGTTNNRAPGVPARFSGSLIGDKAALTITGAQTEDEAIYFCALWYSNHLVFGGGTKLTVLG and report
stdout: 91.8

stdin: // repeat for anti-Siglec-5 monoclonal antibody 11H3 (antibody, IgG1, V domains shown) VH: QVQLQQSGPELVKPGASVKVSCKASDYAFTSYNIYWVKQSHGKSLEWIGYIDPYNGGTSYNQTFKGKATLTVDKSSSTAYMHLNSLTSEDSAVYYCAMKVGYEAMDYWGQGTSVTVSS VL: DIQMTQSQKFMSTSVGDRVSVTCKASQNVGTNVAWYQQKPGQSPKALIYSASYRYSGVPDRFTGSGSGTDFTLNISNVQSEDLAEYFCQQFNSYPYTFGGGTKLEIK and report
stdout: 84.1

stdin: // repeat for anti-Siglec-5 monoclonal antibody 11C6 (antibody, IgG1, V domains shown, also called 1106) VH: QVQLQQSGAELVKPGASVKLSCKASGYTFTEYTIHWVKQRSGQGLEWIGWFYPGSGSIKYNEKFKDKATLTAVKSSSTVYMEFSRLTSEDSAVYFCARQDYDGLGFAYWGQGTLVTVSA VL: DVLMTQTPLSLPVSLGDQASISCRSSQTIVHSNGNTYLEWYLQKPGQSPKLLIYKVSNRFSGVPDRFSGSGSGTDFTLKISRVEAEDLGVYYCFQGSHVPWTFGGGTKLEIK and report
stdout: 80.6

stdin: // repeat for anti-Siglec-5 monoclonal antibody 7A5 (antibody, IgG1, V domains shown) VH: EIQLQQSGPELVKPGASVKVSCKASGYSFTDYNMYWVKQSHGKSLEWIGYIDPYNGGTTYNQKFKGKATLTVDKSSSTAFMHLNSLTSEDSAVFYCAFYYGYYGVPYWGQGTLVTVSA VL: DIVMIQSQKFMSTSVGDRVSVTCKASQNVDTNVAWYQQKPGQSPKALIYSASYRYSGVPDRFTGSGSGTDFTLTISNVQSEDLAEYFCQQYNSFPLTFGSGTKLEIK and report
stdout: 84.1
